% inhibition reference
# Experimental System: soluble HLA-B*0702 (human)
# Experiment Notes: fluorescence polarization competition against the fluorescent labeled standard on soluble HLA-B*0702
Endpoint: % inhibition (%)

>  <Binder>
EPGQTSVAP [C35 peptide E4 to P12]

>  <Quantity Unit>
%

>  <Reading>
54.6

$$$$
>  <Binder>
TGAFEIEIN (also called TGAFEIEIN) [C35 peptide T62 to N70]

>  <Quantity Unit>
%

>  <Reading>
38.8

$$$$
>  <Binder>
NSRPPAVIL [C35 peptide N107 to L115 (analog with Ala substituted for Cys at 112)]

>  <Quantity Unit>
%

>  <Reading>
68.2

$$$$
>  <Binder>
ITNSRPPAV [C35 peptide I105 to V113 (analog with Ala substituted for Cys at 112)]

>  <Quantity Unit>
%

>  <Reading>
45.2

$$$$
>  <Binder>
GAFEIEING (also called GAFEIEING) [C35 peptide G63 to G71]

>  <Quantity Unit>
%

>  <Reading>
51.4

$$$$
>  <Binder>
KITNSRPPA [C35 peptide K104 to A112 (analog with Ala substituted for Cys at 112)]

>  <Quantity Unit>
%

>  <Reading>
69.4

$$$$

Origin of measurements: patent US20040063907A1
